Tested on: H4 cells overexpressing full-length alpha-synuclein
Assay: Cellular model of aggregated alpha-synuclein-dependent toxicity, full-length alpha-synuclein H4 cells
Format: cell-based
Conditions: 10 μM compound, 100 μM FeCl3, 0.75% DMSO, 48 h, read-out: Change in fraction of condensed nuclei (rel. to DMSO control) [%]
// inhibition at 10 µM lookup, one value per entry
Express the result in % but write the number alone.

Solved cases below.
Brc1cc(-c2cc(-c3ccc(N4CCC4)cc3)n[nH]2)ccn1 : 55
Brc1cc(-c2cc(-c3ccc4c(c3)OCO4)n[nH]2)ccn1 : 23.8

Entry Nc1ccc(-c2cc(-c3ccnc(Br)c3)[nH]n2)cc1 ; inhibition at 10 µM = 62.5

Entry CNc1ccc(-c2cc(-c3ccnc(Br)c3)[nH]n2)cc1 ; inhibition at 10 µM = 79

Entry Fc1cccc(-c2cc(-c3ccc4c(c3)OCO4)n[nH]2)n1 ; inhibition at 10 µM = -13.7

Data origin, for the record: patent US20230067910A1
